Hello, the source for this data is ChEMBL document CHEMBL3885861, in case you need it.

Below, each of the compounds is paired with its reported KIDNEY_TOTAL value.
# Species: Rattus norvegicus
# assay.explanation: Open TG-GATES - Regimen: Daily Repeat
# Type: toxicity, organism-based, Sprague-Dawley
# Design: regimen Daily Repeat, gender Male, age 6 weeks
# test.context: in vivo, po, 0 mg/kg, 72 h, tissue Kidney, route gavage, dose level Control, time 3 day
API: value field is a number in g; no unit string.

Solved cases (2 shown):
compound	value.units	KIDNEY_TOTAL
Cn1cnc([N+](=O)[O-])c1Sc1ncnc2nc[nH]c12	g	1.8
Cc1cccc(Nc2cc(Cl)nc(SCC(=O)O)n2)c1C	g	1.9

State, in one line, measured KIDNEY_TOTAL of COc1ccc(Cl)cc1C(=O)NCCc1ccc(S(=O)(=O)NC(=O)NC2CCCCC2)cc1 [GLYBURIDE] 2

State, in one line, measured KIDNEY_TOTAL of COc1ccc(O)c(C(C)(C)C)c1.COc1ccc(O)cc1C(C)(C)C [BUTYLATED HYDROXYANISOLE] 1.9

State, in one line, measured KIDNEY_TOTAL of C=CCO 2
